# Tested on: CEM cells HIV-1 protection, formazan growth assay
# Assay protocol: NCI AIDS Antiviral Assay
# Experimental conditions: measured here: growth of uninfected CEM cells

{"Compound": "N#CC(c1ccccc1)N(CCCCCCN(C(=O)c1ccccc1)C(C#N)c1ccccc1)C(=O)c1ccccc1 (stereo unspecified)", "Sign": "=", "IC50, µM": 61.7}
{"Compound": "COC1N(C2CC(N=[N+]=[N-])C(CO)O2)C(=O)NC(=O)C1(C)Cl (stereo unspecified)", "Sign": "=", "IC50, µM": 891}
{"Compound": "Cc1nc2ccccc2nc1CC(=N)c1ccccc1", "Sign": "=", "IC50, µM": 61.7}
{"Compound": "O=C(/C=C/c1ccccc1)CSc1ncn[nH]1", "Sign": "=", "IC50, µM": 12}
{"Compound": "CO/N=C\\c1c2c(O)c3c(O)c(C)c4c(c3c1O)C(=O)C(C)(O/C=C\\C(OC)C(C)C(OC(C)=O)C(C)C(O)C(C)C(O)C(C)/C=C\\C=C(\\C)C(=O)N2)O4 (stereo unspecified)", "Sign": "=", "IC50, µM": 15.8}
{"Compound": "Nc1c2c([nH]c(=O)c1N=O)CCC2", "Sign": ">", "IC50, µM": 200}
{"Compound": "Cc1cccc(NC(=S)Nc2cccc(C)n2)n1", "Sign": ">", "IC50, µM": 200}
{"Compound": "CCOC(=O)c1ccc(-c2cccs2)n1C", "Sign": "=", "IC50, µM": 97.7}
{"Compound": "COc1ccc(-n2cnn3c(=O)c4cn[nH]c4nc23)cc1", "Sign": ">", "IC50, µM": 200}
{"Compound": "S=c1sc2c(s1)SCCS2", "Sign": "=", "IC50, µM": 155}
{"Compound": "O=C1CCC(=O)N2c3ccccc3-c3ccccc3N12", "Sign": ">", "IC50, µM": 191}

----------
# System: CEM cells HIV-1 protection, formazan growth assay
# Assay protocol: NCI AIDS Antiviral Assay
# Experimental conditions: measured here: growth of uninfected CEM cells
Known log10(IC50) of a selection of molecules
Outcome measure: log10(IC50) (log10 of the value in µM)

{"Molecule": "CCOC(=O)/C(=C(/N)C1OC(COC(c2ccccc2)(c2ccccc2)c2ccccc2)C2OC(C)(C)OC12)C1CC(=O)N(C)C1=O (stereo not given)", "log10(IC50)": 1.07}
{"Molecule": "OC1c2ccccc2C(O)C2OC12 (stereo not given)", "log10(IC50)": 2.06}
{"Molecule": "C/C=C/c1cc(=O)c([C@@H]2OC(=O)c3cc(OC)cc(OC)c32)co1", "log10(IC50)": 1.92}
{"Molecule": "c1ccc2c(C(c3c[nH]c4ccccc34)c3c[nH]c4ccccc34)c[nH]c2c1", "log10(IC50)": 1.28}
{"Molecule": "CCOC(=O)NN(CCOS(=O)(=O)c1ccc(C)cc1)CCOS(=O)(=O)c1ccc(C)cc1", "log10(IC50)": 2.08}
{"Molecule": "NCCCCCC(CCN)SCC1OC(n2cnc3c(N)ncnc32)C(O)C1O (stereo not given)", "log10(IC50)": 2.03}
{"Molecule": "CC1=C(C(=O)NCCCN(CCO)CCO)CC(C(=O)NCCCN(CCO)CCO)=C(C)N1", "log10(IC50)": 2.05}

Values were extracted from PubChem BioAssay AID179.
